System: MCF7 breast
Assay: NCI tumour cell line growth inhibition, 48 h; in the data active = GI50 below about 0.43 µM; inactive = the rest
Returns: one label drawn from y (active), n (inactive)

O=C1c2cccnc2-c2nc(-c3ccc(Cl)cc3)cc3c2c1nc1ccccc13 | n
COc1ccc(C(=O)c2cc(C)c(OC)c(C)c2)cc1OC(=O)CCl | y
COCC[C@H]1CCC/C=C/[C@@H]2C[C@H](O)C[C@H]2[C@H](O)/C=C/C(=O)O1 | y

In: Test call for this compound, please: "NC(=O)c1cc(Cl)ccc1NC(=O)/C=C/c1ccccc1"
Out: n

In: Next compound: CCCCC(CC)COC(=O)C[N+](C)(C)CCOC(c1ccccc1)c1ccccc1 (configuration not stated)
Out: n

In: Next compound: "Cc1cc2ncnn2cc1Nc1ncc2c(n1)n(C1CCOCC1)c(=O)n2C"
Out: n

In: Next compound: "COc1c(C(=O)/C=C/c2ccccc2)c(O)cc2occc12"
Out: n

In: Next compound: "COc1cc(OC)c(C(=O)/C=C/c2cccc(C(F)(F)F)c2)c(OC)c1"
Out: n

In: Next compound: "COc1ccc(C[N+](C)(C)N)cc1OC"
Out: n

In: Next compound: O=c1cc(NCC(O)CN2CCCC2)n(Cc2ccccc2)c(=O)n1Cc1ccccc1 (configuration not stated)
Out: n

In: Next compound: CC12OC(C(=O)C13CC3)C1C(=O)c3ccc4c(ccc5ccccc54)c3C(=O)C12 (configuration not stated)
Out: n

In: Next compound: "C/C(=N\Nc1ccc(Cl)cn1)c1ccc2ccccc2n1"
Out: n

###

Test system: OVCAR-5 ovarian
Experiment: NCI tumour cell line growth inhibition, 48 h
observed property: TGI

Recorded results for 4 compounds are shown here.
CCOC(=O)CCC(=O)C1c2cccc(O)c2C(=O)c2c(O)cc(C)cc21 (stereo not given) | 1.67 µM
COc1ccc(C2=C(Cl)c3cc(OC)c(OC)cc3C2Cl)cc1 (stereo not given) | 29.2 µM
CSc1cc(Cl)c(C)cc1S(=O)(=O)NC(=O)NNc1cccc(C(F)(F)F)n1 | > 100 µM
C1=Cc2cc3c(c4nccc(c24)N1)OCO3 | > 69.4 µM

In: Under OVCAR-5 ovarian: TGI value of "COc1ccc(-c2cc(-c3cc(C)cc(Br)c3O)no2)cc1" ?
Out: 88.9 µM

In: Next compound: "Cc1ccc(N=C/C=C(\Nc2ccc(C)cc2)c2ccc(Cl)cc2)cc1"
Out: 94.9 µM

In: Next compound: CCN(CC)C1CC(O[C@H]2C[C@](O)(C(=O)CO)Cc3c(O)c4c(c(O)c32)C(=O)c2c(OC)cccc2C4=O)OC(C)C1O (stereo not given in full)
Out: 0.561 µM

In: Next compound: "CCC(=O)Oc1ccc2c(c1)c(=O)c1c(NCCCN(C)C)ccc3nnn2c31"
Out: 22.6 µM

In: Next compound: Nc1nc([O-])c2c(n1)[n+](C1OC(CO)C(O)C1O)cn2CCO (stereo not given)
Out: > 100 µM

In: Next compound: "c1ccc(CNc2nncc3[nH]cnc23)cc1"
Out: > 100 µM

###

# TGI values compiled below
Tested on: A549 NSCLC
Assay: NCI tumour cell line growth inhibition, 48 h

Recorded results for 5 compounds are shown here.
Cc1cc(NS(=O)(=O)c2ccc(Nc3c4ccccc4nc4c(C(=O)N5CCN(CCO)CC5)cccc34)cc2)no1 | > 100 µM
COc1cc2c3c(n(CCCN)c(=O)c2cc1OC)-c1ccc(C#N)cc1C3=O | 22.1 µM
COCc1nc2c(OC)c(-c3nc4nc(N5CCN(C)CC5)ccc4[nH]3)cc(OC)c2n1C | > 100 µM
Cc1ccc2c3c1O[C@H]1c4[nH]c5ccccc5c4C[C@@]4(O)[C@@H](C2)N(CC2CC2)CC[C@]314 | 29.7 µM
Cc1cc(C(=O)Nc2ccc3cc(CN4CCOCC4)ccc3n2)c(C)n1-c1ccccc1 | 12.1 µM

In: Need TGI, item "S=c1ssc(N2CCOCC2)c1Cl"
Out: > 100 µM

In: Next compound: "CCc1nc(N)nc(N)c1-c1ccc(NC)c([N+](=O)[O-])c1"
Out: > 100 µM

In: Next compound: "C[C@@H](c1ccccc1)n1c(N)c(C#N)c2ccc([N+](=O)[O-])cc2c1=O"
Out: > 100 µM

In: Next compound: "COc1ccc(CN2CC(C)(C)C2=O)c(OC)c1"
Out: > 100 µM
